# ASSAY_SYSTEM: EPHB1 (UniProt P54762)
# Sequence (P54762 whole entry, looked up): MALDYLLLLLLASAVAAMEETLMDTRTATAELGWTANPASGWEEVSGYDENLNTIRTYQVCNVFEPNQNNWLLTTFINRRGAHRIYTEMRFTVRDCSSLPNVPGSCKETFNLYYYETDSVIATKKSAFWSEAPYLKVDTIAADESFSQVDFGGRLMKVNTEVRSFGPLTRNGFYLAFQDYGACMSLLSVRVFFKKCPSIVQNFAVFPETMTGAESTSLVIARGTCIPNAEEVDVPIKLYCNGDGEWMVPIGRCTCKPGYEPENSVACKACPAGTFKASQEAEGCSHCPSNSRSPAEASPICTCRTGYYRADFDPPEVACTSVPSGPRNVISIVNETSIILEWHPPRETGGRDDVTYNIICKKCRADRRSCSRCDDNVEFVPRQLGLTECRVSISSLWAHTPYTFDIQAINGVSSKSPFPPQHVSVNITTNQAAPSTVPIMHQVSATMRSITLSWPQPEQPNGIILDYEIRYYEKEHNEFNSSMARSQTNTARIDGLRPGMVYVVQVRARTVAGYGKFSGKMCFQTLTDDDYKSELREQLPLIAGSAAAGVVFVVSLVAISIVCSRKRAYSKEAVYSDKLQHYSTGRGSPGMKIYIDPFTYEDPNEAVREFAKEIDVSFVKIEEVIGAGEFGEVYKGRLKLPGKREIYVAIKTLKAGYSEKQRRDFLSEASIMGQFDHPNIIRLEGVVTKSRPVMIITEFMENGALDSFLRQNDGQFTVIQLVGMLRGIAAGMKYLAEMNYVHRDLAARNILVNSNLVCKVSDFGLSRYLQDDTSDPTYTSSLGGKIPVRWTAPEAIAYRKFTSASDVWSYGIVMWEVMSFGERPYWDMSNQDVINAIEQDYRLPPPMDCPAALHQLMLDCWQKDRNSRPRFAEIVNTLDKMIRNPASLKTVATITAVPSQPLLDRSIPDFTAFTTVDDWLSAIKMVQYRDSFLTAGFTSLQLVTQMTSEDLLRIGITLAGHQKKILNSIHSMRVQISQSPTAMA
# EXPERIMENTAL_DETAILS: phosphorylation enrichment, bacterial display (enrichment ratio); higher = better substrate or ligand; peptides without Tyr show the background;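 further: 11-residue human phosphosite peptides and single-mutation variants displayed on the E. coli surface, counted by deep sequencing, each peptide's frequency after selection divided by its frequency in the unselected input library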;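 further: frequency after pTyr selection over input frequency; kinase dosed for 20-30% of maximal phosphorylation in three min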
PROPERTY_NAME: phosphorylation enrichment

PRIMARY_SEQUENCE	ASSAY_SYSTEM	REPORTED
LKGQVYILGGE [ASS1_Y359_R363G]	EPHB1 (UniProt P54762)	1.13

Provide one value: measured phosphorylation enrichment of FSDQVYRQHRK [TH_Y230_R233H] 0.335

Provide one value: measured phosphorylation enrichment of KDHPDYKFQRR [SOX10_Y171_P175R_YF] 0.338

Provide one value: measured phosphorylation enrichment of KIIRWYVSSEG [ANK2_Y3907_R3906W] 0.69

====

# System: c-Src
# EXPERIMENTAL_DETAILS: phosphorylation enrichment, bacterial display (enrichment ratio); higher = better substrate or ligand; peptides without Tyr show the background
PROPERTY_NAME: phosphorylation enrichment
Number, no unit, nothing else.

Example sequences with recorded phosphorylation enrichment:
PRIMARY_SEQUENCE	phosphorylation enrichment
NREGVYRVFAP [TGFBI_Y537_T538R]	4.67
SFTDPYAQPSL [KMT2D_Y2378_P2382S_YF]	0.447

Then this sequence:
Provide one value: measured phosphorylation enrichment of LLSVAYQNVVG [YWHAG_Y49_K50Q] 0.443

====

# ASSAY_SYSTEM: Jak2 (UniProt O60674)
# Sequence (O60674 whole entry, looked up): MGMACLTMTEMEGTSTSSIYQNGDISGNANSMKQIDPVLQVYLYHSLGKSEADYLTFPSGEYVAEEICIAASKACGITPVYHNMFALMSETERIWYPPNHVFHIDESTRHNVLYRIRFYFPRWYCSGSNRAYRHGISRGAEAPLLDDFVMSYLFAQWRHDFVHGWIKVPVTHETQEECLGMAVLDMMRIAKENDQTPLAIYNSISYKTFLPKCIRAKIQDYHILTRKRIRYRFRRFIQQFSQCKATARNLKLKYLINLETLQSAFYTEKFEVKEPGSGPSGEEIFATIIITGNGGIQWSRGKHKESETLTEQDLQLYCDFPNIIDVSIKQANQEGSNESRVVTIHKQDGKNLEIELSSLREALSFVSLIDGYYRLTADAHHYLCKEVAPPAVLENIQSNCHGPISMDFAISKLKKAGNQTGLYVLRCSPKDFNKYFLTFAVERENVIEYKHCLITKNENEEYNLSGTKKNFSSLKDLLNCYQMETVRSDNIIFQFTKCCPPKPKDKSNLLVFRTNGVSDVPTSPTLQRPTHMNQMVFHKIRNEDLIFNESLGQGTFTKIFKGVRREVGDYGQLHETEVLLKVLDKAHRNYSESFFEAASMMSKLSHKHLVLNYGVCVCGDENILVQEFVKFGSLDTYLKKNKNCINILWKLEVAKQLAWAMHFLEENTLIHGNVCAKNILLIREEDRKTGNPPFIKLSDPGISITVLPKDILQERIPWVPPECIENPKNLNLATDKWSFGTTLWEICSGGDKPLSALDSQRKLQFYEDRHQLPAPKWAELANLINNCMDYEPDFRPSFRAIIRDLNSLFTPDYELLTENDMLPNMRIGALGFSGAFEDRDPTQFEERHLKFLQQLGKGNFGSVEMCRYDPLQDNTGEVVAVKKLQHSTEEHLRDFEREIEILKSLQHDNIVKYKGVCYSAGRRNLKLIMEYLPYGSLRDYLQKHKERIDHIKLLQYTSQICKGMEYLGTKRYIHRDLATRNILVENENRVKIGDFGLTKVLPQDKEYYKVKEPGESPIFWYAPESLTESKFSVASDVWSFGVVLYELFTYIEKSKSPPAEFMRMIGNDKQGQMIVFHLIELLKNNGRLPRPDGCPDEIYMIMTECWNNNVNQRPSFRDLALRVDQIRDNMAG
# EXPERIMENTAL_DETAILS: phosphorylation enrichment, bacterial display (enrichment ratio); higher = better substrate or ligand; peptides without Tyr show the background
PROPERTY_NAME: phosphorylation enrichment
Number, no unit, nothing else.

PRIMARY_SEQUENCE	REPORTED
PFRQWYESHFA [RPS8_Y113_YF]	0.963
EFGFRYELVQF [UGGT2_Y1289_Y1285F_YF]	1.11
RGRKVYLEDGF [PRIM2_Y201]	0.808
PLGPLYASSNP [INSR_Y992]	0.941

Provide one value: measured phosphorylation enrichment of LEDPMYDIIRD [RP9_Y142_H137L] 2.7

Provide one value: measured phosphorylation enrichment of VGQRPYRPLPE [REEP3_Y170_Q171R] 0.67

Provide one value: measured phosphorylation enrichment of KLKEKYQKDIA [HMGB1_Y155_E156Q] 1.47

Provide one value: measured phosphorylation enrichment of FGCGMYSHLQG [LGR4_Y848_D844G_YF] 1.06

Provide one value: measured phosphorylation enrichment of EYFENYIEELK [PARP4_Y218] 1.5

Provide one value: measured phosphorylation enrichment of ADRNHYRRYPR [YBX1_Y145] 0.585

====

# ASSAY_SYSTEM: EPHB2 (UniProt P29323)
# Sequence (P29323 whole entry, looked up): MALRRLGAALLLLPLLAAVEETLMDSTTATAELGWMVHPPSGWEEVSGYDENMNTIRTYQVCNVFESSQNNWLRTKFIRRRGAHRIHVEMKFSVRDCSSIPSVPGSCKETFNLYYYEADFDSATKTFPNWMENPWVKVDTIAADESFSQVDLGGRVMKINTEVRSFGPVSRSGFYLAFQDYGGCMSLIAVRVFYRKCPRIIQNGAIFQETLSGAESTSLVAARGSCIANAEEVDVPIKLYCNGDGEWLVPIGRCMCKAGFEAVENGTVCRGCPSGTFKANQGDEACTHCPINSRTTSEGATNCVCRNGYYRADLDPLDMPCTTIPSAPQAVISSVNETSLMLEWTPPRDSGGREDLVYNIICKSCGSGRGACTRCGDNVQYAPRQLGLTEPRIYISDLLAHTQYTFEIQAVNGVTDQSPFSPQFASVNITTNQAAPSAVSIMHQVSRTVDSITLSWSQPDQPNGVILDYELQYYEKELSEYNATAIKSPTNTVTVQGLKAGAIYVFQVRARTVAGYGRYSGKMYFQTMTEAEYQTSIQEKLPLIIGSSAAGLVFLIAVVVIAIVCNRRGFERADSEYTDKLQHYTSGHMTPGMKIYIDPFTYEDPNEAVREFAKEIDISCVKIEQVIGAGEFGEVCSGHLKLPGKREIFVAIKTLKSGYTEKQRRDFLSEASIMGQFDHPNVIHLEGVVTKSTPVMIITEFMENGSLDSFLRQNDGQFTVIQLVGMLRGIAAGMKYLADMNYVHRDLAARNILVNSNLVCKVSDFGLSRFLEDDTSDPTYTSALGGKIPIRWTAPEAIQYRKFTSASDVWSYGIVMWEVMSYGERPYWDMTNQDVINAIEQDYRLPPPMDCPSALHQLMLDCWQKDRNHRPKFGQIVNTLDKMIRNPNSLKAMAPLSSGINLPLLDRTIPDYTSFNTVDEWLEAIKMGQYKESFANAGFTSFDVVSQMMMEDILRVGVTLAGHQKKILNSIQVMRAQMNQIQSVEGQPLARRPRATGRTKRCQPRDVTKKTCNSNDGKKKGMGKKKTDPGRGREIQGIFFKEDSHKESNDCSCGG
# EXPERIMENTAL_DETAILS: phosphorylation enrichment, bacterial display (enrichment ratio); higher = better substrate or ligand; peptides without Tyr show the background
PROPERTY_NAME: phosphorylation enrichment
Number, no unit, nothing else.

PRIMARY_SEQUENCE	phosphorylation enrichment
FRIGPYQPSVP [MATR3_Y784_N787S_YF]	0.543
HGAKVYIDPFT [EPHB4_Y590_T587A]	0.975
SLEKSYELLDG [ACTB_Y240_P243L]	0.584

Provide one value: measured phosphorylation enrichment of ASKEPYFVRCI [MYO1D_Y585_YF] 0.734

Provide one value: measured phosphorylation enrichment of EYFENYIEELK [PARP4_Y218] 0.647

Provide one value: measured phosphorylation enrichment of EWLRRYLKNGK [HLA-C_Y195_E197K] 0.578

Provide one value: measured phosphorylation enrichment of PTTKTYFPHFD [HBA1_Y43] 0.396

Provide one value: measured phosphorylation enrichment of KNKKDYYDMYE [SLC26A3_Y526] 0.738

Provide one value: measured phosphorylation enrichment of WFKKFYDANYD [MAPRE2_Y158] 0.529

Provide one value: measured phosphorylation enrichment of REIHDYIKHLG [UNC13C_Y308_D304E] 0.663

Provide one value: measured phosphorylation enrichment of FSTDFYRVGGH [NTRK2_Y707_YF] 0.405

Provide one value: measured phosphorylation enrichment of IQRSLYDCPAS [PDGFRA_Y762_R764C] 2.5

Provide one value: measured phosphorylation enrichment of TKVVHYRKWIK [KLK2_Y249] 0.318

Provide one value: measured phosphorylation enrichment of AAVDTVCRHNF [HLA-DRB1_Y107_Y107V_YF] 0.577

Provide one value: measured phosphorylation enrichment of SRLDSYVRSLP [TRAPPC1_Y133] 0.395

Provide one value: measured phosphorylation enrichment of ERWLKYFPNEQ [HS3ST5_Y244_I247N] 0.584

Provide one value: measured phosphorylation enrichment of DTKPVYQNLRQ [BOD1_Y82_A81V] 0.44

Provide one value: measured phosphorylation enrichment of RRGLLYDSDEE [MCM2_Y137] 0.642

Provide one value: measured phosphorylation enrichment of RNFDTYTAGLS [RHBDD1_Y264_YF] 3.55

Provide one value: measured phosphorylation enrichment of FGGLRCGFGVL [KRTAP20-2_Y13_Y13C_YF] 0.537

Provide one value: measured phosphorylation enrichment of SAQHHYESLQT [BIN1_Y157_R154Q] 0.402

Provide one value: measured phosphorylation enrichment of MKGDFYRSLAE [YWHAG_Y131_Y133S_YF] 0.437

Provide one value: measured phosphorylation enrichment of GQLIFYAPPEW [CNTN6_Y315] 3.08

====

# System: c-Abl (mouse)
# EXPERIMENTAL_DETAILS: phosphorylation enrichment, bacterial display (enrichment ratio); higher = better substrate or ligand; peptides without Tyr show the background
phosphorylation enrichment vs 0.8: at or above is Met, below is Not met.

Worked cases, answers included:
PRIMARY_SEQUENCE	CAT
PLGPLYASSNP [INSR_Y992]	Met
KVVNEYVTKGQ [MYH7_Y410_G407V]	Not met
FKGKNYKPLDL [RPL35_Y78_K77N_YF]	Not met

Now look at this entry.
Is phosphorylation enrichment for LITTLYIDFLG [KCNQ1_Y267_G269D] at or above 0.8? Met

====

# ASSAY_SYSTEM: MERTK (UniProt Q12866)
# EXPERIMENTAL_DETAILS: phosphorylation enrichment, bacterial display (enrichment ratio); higher = better substrate or ligand; peptides without Tyr show the background
PROPERTY_NAME: phosphorylation enrichment
Number, no unit, nothing else.

Example sequences with recorded phosphorylation enrichment:
PRIMARY_SEQUENCE	phosphorylation enrichment
RQNQEYEILLD [KRT39_Y379]	0.63
LGGSPYPRVPV [FGFR1_Y701_G703R]	0.4
KTDVHYRSLGG [DYSF_Y1858]	0.377
LLNPRYNLPLD [TOM1L1_Y109]	1.16

Provide one value: measured phosphorylation enrichment of ASKEPYFVRCI [MYO1D_Y585_YF] 0.574

Provide one value: measured phosphorylation enrichment of RHTRSYDFMEG [FGF7_Y56_YF] 1.13

Provide one value: measured phosphorylation enrichment of GYIISYREEEQ 0.539

Provide one value: measured phosphorylation enrichment of LLVVLYKYRCF [PSEN1_Y154_Y159F] 0.626

Provide one value: measured phosphorylation enrichment of KNKKDYYDMYE [SLC26A3_Y526] 0.408

====

# ASSAY_SYSTEM: Fes (UniProt P07332)
# Sequence (P07332 whole entry, looked up): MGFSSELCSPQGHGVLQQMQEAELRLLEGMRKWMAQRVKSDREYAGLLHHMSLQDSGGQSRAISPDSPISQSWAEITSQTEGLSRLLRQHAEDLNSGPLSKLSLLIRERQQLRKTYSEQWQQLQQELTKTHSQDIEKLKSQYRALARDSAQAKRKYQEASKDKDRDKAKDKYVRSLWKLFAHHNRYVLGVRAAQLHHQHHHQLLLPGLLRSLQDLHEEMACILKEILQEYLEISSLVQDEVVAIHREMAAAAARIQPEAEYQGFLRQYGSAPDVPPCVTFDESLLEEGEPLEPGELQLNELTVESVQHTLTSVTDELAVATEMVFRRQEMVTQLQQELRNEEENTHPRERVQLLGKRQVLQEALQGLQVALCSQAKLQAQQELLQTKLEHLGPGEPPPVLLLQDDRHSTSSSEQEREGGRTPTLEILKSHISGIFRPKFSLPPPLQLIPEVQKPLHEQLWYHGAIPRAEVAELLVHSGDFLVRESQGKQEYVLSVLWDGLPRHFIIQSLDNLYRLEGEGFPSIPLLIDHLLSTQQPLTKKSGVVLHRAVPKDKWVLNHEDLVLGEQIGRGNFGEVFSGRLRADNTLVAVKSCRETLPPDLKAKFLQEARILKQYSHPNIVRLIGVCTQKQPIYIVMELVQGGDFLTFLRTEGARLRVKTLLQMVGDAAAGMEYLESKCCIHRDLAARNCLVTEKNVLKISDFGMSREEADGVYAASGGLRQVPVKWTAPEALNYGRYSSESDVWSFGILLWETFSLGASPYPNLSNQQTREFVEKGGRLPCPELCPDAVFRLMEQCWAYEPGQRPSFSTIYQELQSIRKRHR
# EXPERIMENTAL_DETAILS: phosphorylation enrichment, bacterial display (enrichment ratio); higher = better substrate or ligand; peptides without Tyr show the background
PROPERTY_NAME: phosphorylation enrichment
Number, no unit, nothing else.

PRIMARY_SEQUENCE	REPORTED
ISTAGYSFPEL [EDAR_Y406_I408F]	0.878

# return phosphorylation enrichment for AGTILSHAHLD [ASS1_Y291_Y291S] , test system: Fes (UniProt P07332) 0.847

# return phosphorylation enrichment for AHPIIYTIIEA [PYKtide_no-pT_2014] , test system: Fes (UniProt P07332) 1.21

# return phosphorylation enrichment for IRDENYGEGSS [ACO2_Y665_G661R] , test system: Fes (UniProt P07332) 0.936

====

# ASSAY_SYSTEM: FGFR3 (UniProt P22607)
# Sequence (P22607 whole entry, looked up): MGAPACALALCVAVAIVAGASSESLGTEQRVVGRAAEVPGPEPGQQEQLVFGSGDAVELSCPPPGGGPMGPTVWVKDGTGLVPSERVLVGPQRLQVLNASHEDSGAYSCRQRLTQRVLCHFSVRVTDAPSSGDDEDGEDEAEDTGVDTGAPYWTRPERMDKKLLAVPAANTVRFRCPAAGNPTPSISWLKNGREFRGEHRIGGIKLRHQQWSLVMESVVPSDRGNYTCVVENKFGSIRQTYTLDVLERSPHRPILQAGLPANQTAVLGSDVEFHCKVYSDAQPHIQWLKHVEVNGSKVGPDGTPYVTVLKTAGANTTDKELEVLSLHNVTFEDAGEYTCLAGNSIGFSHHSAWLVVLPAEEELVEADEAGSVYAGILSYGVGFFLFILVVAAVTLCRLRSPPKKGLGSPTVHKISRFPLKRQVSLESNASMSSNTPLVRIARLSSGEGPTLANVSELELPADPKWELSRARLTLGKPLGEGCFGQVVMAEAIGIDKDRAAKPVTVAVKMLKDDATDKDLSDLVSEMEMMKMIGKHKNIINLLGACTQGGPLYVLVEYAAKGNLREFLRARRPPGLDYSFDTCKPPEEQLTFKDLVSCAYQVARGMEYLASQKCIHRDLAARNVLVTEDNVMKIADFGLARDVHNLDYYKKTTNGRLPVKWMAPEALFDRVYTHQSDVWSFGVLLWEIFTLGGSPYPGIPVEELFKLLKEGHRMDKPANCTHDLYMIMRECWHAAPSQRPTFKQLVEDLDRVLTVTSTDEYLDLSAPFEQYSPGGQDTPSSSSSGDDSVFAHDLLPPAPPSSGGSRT
# EXPERIMENTAL_DETAILS: phosphorylation enrichment, bacterial display (enrichment ratio); higher = better substrate or ligand; peptides without Tyr show the background
PROPERTY_NAME: phosphorylation enrichment

# return phosphorylation enrichment for GSSEGYLHMVH [NIPBL_Y247_D246G] , test system: FGFR3 (UniProt P22607) 0.474

# return phosphorylation enrichment for KEAALYPHLPP [SQSTM1_Y383] , test system: FGFR3 (UniProt P22607) 0.649

# return phosphorylation enrichment for WQQQSYLGSGI [CTNNB1_Y30_D32G] , test system: FGFR3 (UniProt P22607) 0.493

# return phosphorylation enrichment for AEEEIYGEFEA [Src_opt_1995] , test system: FGFR3 (UniProt P22607) 1

# return phosphorylation enrichment for MWGSDYVHLSR [MAP3K4_Y582_Q584H] , test system: FGFR3 (UniProt P22607) 1.82
